# testDetails: Solubility in water at ambient temperature (saturated solution, supernatant by quantitative HPLC)
# Assay type: physicochemical
# condition: water, thermodynamic from solid
experimentalReadout: solubility

Report measured solubility; entry is Cc1c(N=C2NCCN2)cc(C#N)c2[nH]cnc12 [Free Base Form]
~400 µg/mL
